Consider the following sequences and their measured apparent KD of K4 kissing-loop reporter readings.
tested on: K4 kissing-loop RNA reporter; experiment: apparent KD of K4 kissing-loop reporter; higher = weaker reporter binding; conditions: Eterna round: R107; input ligand: FMN 200 uM;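 note: bound reporter read as fluorescence of individual clusters on recovered sequencing chips by microscopy, with normalized cluster intensities fitted with a binding model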
Measurement Name: apparent KD of K4 kissing-loop reporter (nM)

{"Seq String": "ACGUCACGUAUACUCGUGGUUUCGAUCGAUACCAGUAGCGAGAGUUACCCUUGGCAGCGACAUGAGUGAUGUUCAUGUGCGAAGA [KL-XTheo-A3 #analogue]", "Target Or Test System": "K4 kissing-loop RNA reporter", "Experimental Result": 118}
{"Seq String": "GGAGUUACCUGGGAUACCAGUCGGAGGCCCAGAGCUCGGAGUGAUGUUCUGGGAUGUUUCGGCCCUUGGCAGCUCUGGGUCUCCC [#2 Exclusion - Theophylline B Attempt #7 (HarryS)]", "Target Or Test System": "K4 kissing-loop RNA reporter", "Experimental Result": 1690}
{"Seq String": "GAGGUACAGGCGGCCGCCACUAGUGAUGUUAGUGAUGUUUGAUACUGUAUAUAUCGGCGUGUAGAUAGGACCGGGCCUGAUGGAG [znmkmullin]", "Target Or Test System": "K4 kissing-loop RNA reporter", "Experimental Result": 122}

* * *

test system: MS2 coat protein; assay: apparent KD of MS2 coat protein; designed switch direction (-1 OFF switch, 1 ON switch): -1; higher = weaker reporter binding; details: Eterna round: R95; input ligand: microRNA oligo, concentration not stated
Please note: True applies when apparent KD of MS2 coat protein is 0.05 µM or greater, and False applies otherwise.

{"Seq String": "AGUCUGCGAGGAUAUACAUGAGGAUCACCCAUGUGCGAAGAACUAGUGAGGUCGAUUGGUAGAAGGCGCGGACA [Mat - Exclusion 3 - Mod of JL D88] (puzzle: Exclusion 3)", "Group": "True"}
{"Seq String": "AAUUCACAUGAGGAUCACCCAUGUCAGGAUAUGGUUUCACGUGUUUCUUUGCUUGAGGCCAGAAGGGACAGCUA (puzzle: Exclusion 1)", "Group": "True"}
{"Seq String": "GUGUACAGAGGAUAUACACGAGGAGUUACGAAAGUAACUUCACAUGAGGAUCACCCAUGUAGAAGGCUGUACAC [Dot plot directed v6] (puzzle: Exclusion 2)", "Group": "False"}
{"Seq String": "AGCAUGCUAGGAUAUACGAAACAUUAGGGUUCUUUGUAUAAACAUGAGGAUCACCCAUGUAGAAGGAGCGUGCA [Mat - Exclusion 2 - Mod of Hyphema - D97] (puzzle: Exclusion 2)", "Group": "False"}
{"Seq String": "GUGGUAGGUUUUUCGAGUAACAUGAGGAUCACCCAUGUAUUAGUUGGAUGUAUCAAGCUUUUUGCUCGACUUAUAAA [JR_SV3TOV1_Sub043] (puzzle: Sensor v3, turn-off variant 1)", "Group": "False"}
{"Seq String": "UCGCUGCGAGGAUAUACAUGAGGAUCACCCAUGUACGGGUCCGGGUCUUCGUCCAUUAGUAGAAGGCGCAGUGA [JL Laongeedie mod 2] (puzzle: Exclusion 3)", "Group": "False"}
{"Seq String": "CAAAACCUAGGAUAUACAUGAGGAUCACCCAUGUCGGGCCUACGCGAAACGCGCCUCAGUAGAAGGAGGGAAAC [Riri] (puzzle: Exclusion 3)", "Group": "False"}
{"Seq String": "AGCCUACAUGAGGAUCACCCAUGUCAGGAUAUCUCGCGACGUGUCGGGAACACGUUGCAGAGAAGGGACUCGGG [Labezadi] (puzzle: Exclusion 1)", "Group": "True"}
